// provenance: the supplement of paper PMC12042874

- test-name: amyloid nucleation score (Sup35N fusion, yeast selection) (log enrichment); library NNK2; higher = more nucleation; inactive = no reads after selection;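 further: zero at mode of non-aggregating sequences after 7 days selection at 30°C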
Respond with Condition met for amyloid nucleation score values of 0.7 and above, Condition not met for values below.

Would you please look over these solved cases?
KVLCWLRVRYLKGLGQGSAC    Condition not met
IDPLKGMLD    Condition not met
NLGSHTVEFSVMS    Condition not met
YLKMALVMIMYVITYRSTVG    Condition met
GHLYSISCVFNI    Condition met

**Query** I'd appreciate it if you could say whether `AYRVWRRGVEMMRNPFLPVA` has amyloid nucleation score at least equal to 0.7.
**Result** Condition met

**Query** I'd appreciate it if you could say whether `ELLGVQFRSRKYAATQNQWP` has amyloid nucleation score at least equal to 0.7.
**Result** Condition met

---

- test-name: amyloid nucleation score (Sup35N fusion, yeast selection) (log enrichment); library NNK1; higher = more nucleation; inactive = no reads after selection
Respond with YES for amyloid nucleation score values of 0.08 and above, NO for values below.

VCVGFIGDVIRLERSANSVL    NO

**Query** I'd appreciate it if you could say whether `FFIICSYR` has amyloid nucleation score at least equal to 0.08.
**Result** NO

**Query** I'd appreciate it if you could say whether `PLAPMFRLWENSVRYIAKLW` has amyloid nucleation score at least equal to 0.08.
**Result** YES

**Query** I'd appreciate it if you could say whether `TLIIGYRA` has amyloid nucleation score at least equal to 0.08.
**Result** YES

**Query** I'd appreciate it if you could say whether `SSFKWLAASWLQGALHTMRG` has amyloid nucleation score at least equal to 0.08.
**Result** NO

**Query** I'd appreciate it if you could say whether `SEGMYSRMAIEWLSGE` has amyloid nucleation score at least equal to 0.08.
**Result** YES

**Query** I'd appreciate it if you could say whether `NSRSGLMNLVEKSLLYKMLY` has amyloid nucleation score at least equal to 0.08.
**Result** NO

**Query** I'd appreciate it if you could say whether `DWLFLEFGHFTMPEHTKELE` has amyloid nucleation score at least equal to 0.08.
**Result** NO

**Query** I'd appreciate it if you could say whether `FVPIDLGNGK` has amyloid nucleation score at least equal to 0.08.
**Result** YES

**Query** I'd appreciate it if you could say whether `MTLRLS` has amyloid nucleation score at least equal to 0.08.
**Result** YES

**Query** I'd appreciate it if you could say whether `LCIWYICRT` has amyloid nucleation score at least equal to 0.08.
**Result** YES

**Query** I'd appreciate it if you could say whether `MTYTSWMMNRFNITNSYNLV` has amyloid nucleation score at least equal to 0.08.
**Result** YES

**Query** I'd appreciate it if you could say whether `IDEYTDMN` has amyloid nucleation score at least equal to 0.08.
**Result** YES

**Query** I'd appreciate it if you could say whether `YMDGVPG` has amyloid nucleation score at least equal to 0.08.
**Result** NO

**Query** I'd appreciate it if you could say whether `PCTPYLSTYVPLNEK` has amyloid nucleation score at least equal to 0.08.
**Result** NO

**Query** I'd appreciate it if you could say whether `QVKDIGLPMHHACF` has amyloid nucleation score at least equal to 0.08.
**Result** NO

**Query** I'd appreciate it if you could say whether `GIAVGS` has amyloid nucleation score at least equal to 0.08.
**Result** YES

**Query** I'd appreciate it if you could say whether `QDIQSISWHAFVVESFKSEK` has amyloid nucleation score at least equal to 0.08.
**Result** NO

**Query** I'd appreciate it if you could say whether `MIGNRY` has amyloid nucleation score at least equal to 0.08.
**Result** YES

**Query** I'd appreciate it if you could say whether `IFRFSNFR` has amyloid nucleation score at least equal to 0.08.
**Result** YES

**Query** I'd appreciate it if you could say whether `SEVCPSSIKR` has amyloid nucleation score at least equal to 0.08.
**Result** NO
